FYI, the data here is from paper PMC5762859.

Below, each of the compounds is paired with its reported concentration at 24 h value.
- measurement.description: Plasma and brain pharmacokinetics after single oral administration in mice implanted intracranially with MDA-MB-361 cells
- details: female, BALB/cAJcl-nu/nu, mouse, brain, po, 20 mg/kg
Answer in ng/g, number only, no unit symbol.

QUERY: Give its concentration at 24 h value. Item: CC#CC(=NOCC1COCCN1)c1ccc2ncnc(Nc3ccc(OCc4cccc(F)c4)c(Cl)c3)c2c1 (centres unmarked)
RESULT: 1.7

Attention now shifts to the item below.
QUERY: // query concentration at 24 h value for entry CS(=O)(=O)CCNCc1ccc(-c2ccc3ncnc(Nc4ccc(OCc5cccc(F)c5)c(Cl)c4)c3c2)o1 [Lapatinib, reference compound]
RESULT: 0.4
